Ref: paper PMC3081996

Target: human TG2 (Homo sapiens)
Sequence (P21980 1-687): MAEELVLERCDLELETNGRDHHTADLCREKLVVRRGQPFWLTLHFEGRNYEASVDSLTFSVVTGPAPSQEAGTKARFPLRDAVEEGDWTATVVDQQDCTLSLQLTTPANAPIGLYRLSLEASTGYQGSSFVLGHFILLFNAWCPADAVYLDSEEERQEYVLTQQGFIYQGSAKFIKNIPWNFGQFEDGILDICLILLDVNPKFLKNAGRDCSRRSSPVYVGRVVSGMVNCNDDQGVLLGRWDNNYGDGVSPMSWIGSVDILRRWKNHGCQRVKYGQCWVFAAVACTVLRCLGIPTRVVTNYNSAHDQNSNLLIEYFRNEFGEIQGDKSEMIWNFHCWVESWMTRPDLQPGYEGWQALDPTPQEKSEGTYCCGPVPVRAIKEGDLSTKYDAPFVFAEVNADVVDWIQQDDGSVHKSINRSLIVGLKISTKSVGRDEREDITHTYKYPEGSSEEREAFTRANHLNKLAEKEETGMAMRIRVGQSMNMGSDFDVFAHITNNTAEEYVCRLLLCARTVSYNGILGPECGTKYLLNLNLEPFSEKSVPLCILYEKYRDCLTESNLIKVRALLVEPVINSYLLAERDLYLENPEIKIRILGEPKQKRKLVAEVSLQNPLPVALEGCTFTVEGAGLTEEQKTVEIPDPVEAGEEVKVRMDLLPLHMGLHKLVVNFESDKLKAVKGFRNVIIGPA
Experiment: GDH-coupled deamidation assay with Cbz-Gln-Gly
Assay type: biochemical
Settings: GDH-coupled assay
Value Kind: TG2 inhibitory activity (in words)

| Smiles Structure | Result |
| --- | --- |
| CC(=O)/C=C1/C(=O)Nc2ccccc21 | promising inhibitors |
| Cc1cc(C)c(CN2C(=O)C(=O)c3ccccc32)cc1CN1C(=O)C(=O)c2ccccc21 | active |
| O=C1Nc2ccccc2/C1=C1\C(=O)Nc2ccccc21 | promising inhibitors |
| O=C1C(=O)N(CN2C(=O)C(=O)c3ccccc32)c2ccccc21 | active |
